Reference source for all entries: the supplement of paper PMC12494721

Tested on: Klebsiella aerogenes DSM 30053
Assay: growth (OD595) fold change vs plate DMSO controls (fold change (ratio)); higher = more growth
Conditions: incubation time: 27 h, anaerobic, 37 °C
Counter-ions that a name gives are not always drawn.
property.label: growth
Number only, please.

Requested field: growth. Item: COc1cc2nc(N(C)CCCNC(=O)C3CCCO3)nc(N)c2cc1OC (stereo not drawn) [Alfuzosin hydrochloride] (20 µM)
1.01

Requested field: growth. Item: CC/C(=C(/CC)c1ccc(O)cc1)c1ccc(O)cc1 [Diethylstilbestrol] (20 µM)
1

Requested field: growth. Item: CNCC(O)c1ccc(OC(=O)C(C)(C)C)c(OC(=O)C(C)(C)C)c1 (stereo not drawn) [Dipivefrin hydrochloride] (20 µM)
0.982

Requested field: growth. Item: Nc1nc(=S)c2ncn([C@@H]3O[C@H](CO)[C@@H](O)[C@H]3O)c2[nH]1 [Thioguanosine] (20 µM)
1.03

Requested field: growth. Item: c1ccc2cc3ccccc3cc2c1 [Anthracene] (20 µM)
0.993

Requested field: growth. Item: CC(C)NNC(=O)c1ccncc1 [Iproniazide phosphate] (20 µM)
1.09

Requested field: growth. Item: Nc1ccc(C(=O)O)c(O)c1 [Aminosalicylic acid] (20 µM)
1.02

Requested field: growth. Item: CN(N=O)C(=O)N[C@H]1C(O)O[C@H](CO)[C@@H](O)[C@@H]1O (mixture of isomers) [Streptozotocin] (20 µM)
1
